# Tested System: T1, human PD-L1 ECD-His (human, UniProt Q9NZQ7 19-238)
# T1 construct: extracellular domain; Analyte in all SPR and BLI runs; also called hPD-L1_ECD-His; hPD-L1 ECD-His; not shown: His tag
# T1 sequence (Q9NZQ7 19-238): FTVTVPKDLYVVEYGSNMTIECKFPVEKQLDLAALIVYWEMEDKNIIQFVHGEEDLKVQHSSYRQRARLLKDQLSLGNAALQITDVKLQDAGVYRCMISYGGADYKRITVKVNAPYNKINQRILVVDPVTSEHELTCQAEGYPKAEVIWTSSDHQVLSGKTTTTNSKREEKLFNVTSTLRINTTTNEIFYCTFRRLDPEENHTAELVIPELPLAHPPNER
# Procedure Details: SPR, 25 C, antibody captured by anti-human IgG Fc, hPD-L1-His analyte, 1:1 fit
Property Name: pKd
Answers are plain numbers, as −log10 of the molar value.

response.value for PL2#39 IgG2 (antibody, V domains shown, Human IgG2 backbone) VH: EVQLVQSGGGLVKPGGSLRLSCAASGFTFSSYTMNWVRQAPGKGLEWVSSISSGSDYLYYADSVKGRFTISRDNAKNSLYLQMNSLRAEDTAVYYCARNELRWYPKAGAFDIWGQGTMVTVSS VL: QSVVTQPPSMSAAPGQRVTISCSGSSSYITSSYVSWYQQLPGTAPRLLIYDDDMRPSGIPDRFSGSKSGTSATLAITGLQTGDEADYYCKIWDSGLGGVFGGGTKLTVL (field: pKd) = 9.11
